Target: OsWOX13 (Oryza sativa, UniProt Q5QMM3 1-267)
Sequence: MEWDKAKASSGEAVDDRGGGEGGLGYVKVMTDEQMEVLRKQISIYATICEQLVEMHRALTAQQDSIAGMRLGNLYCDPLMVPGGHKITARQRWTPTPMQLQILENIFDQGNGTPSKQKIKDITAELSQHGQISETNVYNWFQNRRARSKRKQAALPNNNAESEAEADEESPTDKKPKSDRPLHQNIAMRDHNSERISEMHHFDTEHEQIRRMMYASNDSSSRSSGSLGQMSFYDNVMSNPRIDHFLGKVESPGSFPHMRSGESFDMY
Experiment: protein-binding microarray (RPBM); PBS, 2% BSA, 51.3 ng/ul salmon testes DNA, 50 uM zinc acetate, 200 nM TF, 25 C, 1 h; high values mean tight binding
Conditions: protein: recombinant; tags: N-terminal polyhistidine and DsRed monomer fusion (pET32a); label: CyDye5-dUTP incorporated in the synthesized complementary strand; 3' TTTTT single-stranded linker to array surface; dsDNA, one strand shown
Over roughly 35,000 sequences, “fluorescence intensity (a.u.)” has its median near 10,000; the highest 2% begin near 52,000. Many of the other results were omitted from the sample, so the highest values are more common in it than they were.
outcome.measure: binding signal

These solved cases illustrate the format of a correct answer.
polymer.sequence | binding signal
ACCGTAACCTGATTGATAATTTACTGATTTACTCATTGTTCGGAGTCACCTAGTGCAG | 64700 fluorescence intensity (a.u.)
TTGTTGATAACCGATAATTTGGTAAATTATTGATTTTATTCGGAGTCACCTAGTGCAG | 19900 fluorescence intensity (a.u.)
ATTTATGTAATTATCATTTATTTTATTGTAAATTTATTTACGGAGTCACCTAGTGCAG | 16300 fluorescence intensity (a.u.)
TAGATTGATTGTTACTCCGTACATAACCTTGTCTTCTTCGCGGAGTCACCTAGTGCAG | 55400 fluorescence intensity (a.u.)
GGAGTGCAAATTAGTCCGGATTTTACTGAATATTGATAACCGGAGTCACCTAGTGCAG | 3300 fluorescence intensity (a.u.)

For each of the sequences below, note its binding signal.
1. TCGATAAATTGAGGAGACCAAAATTCACGAAATCAACATACGGAGTCACCTAGTGCAG
2. TATGATTTGTCTACGTTACAAACATAAACCTTTTCTTCTCCGGAGTCACCTAGTGCAG
3. ATTTTGGTTTCTGTTATTGACAAAACAACTCACTCATTCCCGGAGTCACCTAGTGCAG

Result:
7550 fluorescence intensity (a.u.)
11400 fluorescence intensity (a.u.)
3480 fluorescence intensity (a.u.)

Problem: # input sequence: GGCCAGTAATTAACCATATTTATCATTTAAACTACTCAGTCGGAGTCACCTAGTGCAG ; wanted: its binding signal
Result: 9040 fluorescence intensity (a.u.)

###

Molecular target: OsWOX13 (Oryza sativa, UniProt Q5QMM3 1-267)
Sequence: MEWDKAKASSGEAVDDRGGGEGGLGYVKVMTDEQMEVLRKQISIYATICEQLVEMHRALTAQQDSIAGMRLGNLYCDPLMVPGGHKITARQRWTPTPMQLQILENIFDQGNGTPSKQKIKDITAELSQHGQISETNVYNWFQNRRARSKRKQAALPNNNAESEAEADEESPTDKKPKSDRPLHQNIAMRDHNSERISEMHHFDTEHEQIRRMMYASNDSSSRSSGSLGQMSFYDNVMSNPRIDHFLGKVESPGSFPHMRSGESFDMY
Experiment: protein-binding microarray (RPBM); PBS, 2% BSA, 51.3 ng/ul salmon testes DNA, 50 uM zinc acetate, 200 nM TF, 25 C, 1 h; high values mean tight binding
Details: protein: recombinant; tags: N-terminal polyhistidine and DsRed monomer fusion (pET32a); label: CyDye5-dUTP incorporated in the synthesized complementary strand; 3' TTTTT single-stranded linker to array surface; dsDNA, one strand shown
In all, about 35,000 sequences were measured (“fluorescence intensity (a.u.)”: median about 10,000, highest 2% from about 52,000 on). Shown is part of a subset that was picked to be rich in the highest values.
Provide the recorded binding signal for the entries that follow.

Known results for sequences:
polymer.sequence | tested.on | binding signal
CACTTAATTTGTTAATTAAATATATTTTCCAAACAAATTTCGGAGTCACCTAGTGCAG | OsWOX13 (Oryza sativa, UniProt Q5QMM3 1-267) | 39100 fluorescence intensity (a.u.)
ACGGTGTGATTAATTACGTCGCGATCATGTTGTGCTAATCCGGAGTCACCTAGTGCAG | OsWOX13 (Oryza sativa, UniProt Q5QMM3 1-267) | 32500 fluorescence intensity (a.u.)
ACCCAGGCTTTGATTGCGATGATAAACCGAGCTCGCAGCACGGAGTCACCTAGTGCAG | OsWOX13 (Oryza sativa, UniProt Q5QMM3 1-267) | 13800 fluorescence intensity (a.u.)
CTACAAAATTAAGCTGATAGCAACATCATTCACACATGGACGGAGTCACCTAGTGCAG | OsWOX13 (Oryza sativa, UniProt Q5QMM3 1-267) | 4120 fluorescence intensity (a.u.)
TAAAATTAAGCTCCAAATAAACTATATAAAATTATGTATTCGGAGTCACCTAGTGCAG | OsWOX13 (Oryza sativa, UniProt Q5QMM3 1-267) | 4090 fluorescence intensity (a.u.)
TACGTGTGTTGATTTCCGTGACATATGCATAAATTTCTTTCGGAGTCACCTAGTGCAG | OsWOX13 (Oryza sativa, UniProt Q5QMM3 1-267) | 3870 fluorescence intensity (a.u.)
GCCACTAAATTAATCCGGTGATTGATCATGTGTGGAAGCACGGAGTCACCTAGTGCAG | OsWOX13 (Oryza sativa, UniProt Q5QMM3 1-267) | 54200 fluorescence intensity (a.u.)
TATTGATTTAATGAAACTAATTTGGTATTATAAATATTACCGGAGTCACCTAGTGCAG | OsWOX13 (Oryza sativa, UniProt Q5QMM3 1-267) | 32200 fluorescence intensity (a.u.)
GATTTGATTTAAATCTTGAATAAATTTAATAAAATCCTATCGGAGTCACCTAGTGCAG | OsWOX13 (Oryza sativa, UniProt Q5QMM3 1-267) | 10000 fluorescence intensity (a.u.)
TTATTACAATTTAATTATATTTTAATTATTCTAAAAGCTTCGGAGTCACCTAGTGCAG | OsWOX13 (Oryza sativa, UniProt Q5QMM3 1-267) | 20200 fluorescence intensity (a.u.)

Please give binding signal for each item listed below.
1. ATACTAATTACTTAATTAGTGACCAGTGATCACTTGTGTGCGGAGTCACCTAGTGCAG
2. ATTAATTAAAGCTAATTAAACGATGTTGTTTATTAGGCTTCGGAGTCACCTAGTGCAG
3. TGATGGGAAAACTTTAAAATTAATTTTGAATTTAAGGTTGCGGAGTCACCTAGTGCAG
4. ATCGTAGTGTAATTACACTGTAACTTATATGTAATTACACCGGAGTCACCTAGTGCAG

Result:
1. 45800 fluorescence intensity (a.u.)
2. 58700 fluorescence intensity (a.u.)
3. 4960 fluorescence intensity (a.u.)
4. 12100 fluorescence intensity (a.u.)
